- assaySystem: PTPN3, P26045
- Sequence (P26045 505-587): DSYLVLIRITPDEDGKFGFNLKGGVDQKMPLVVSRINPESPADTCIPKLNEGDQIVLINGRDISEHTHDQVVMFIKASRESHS
- assayInfo: holdup assay
- Parameters: key: below the threshold = too weak to quantify, mostly under pKd 3.1 to 4
- conditions: plain residues with an end cap or a label only (N-terminal biotin on a linker: ttds)
Consider the following binders; for each one, report its pKd.

The cases that follow already have their pKd on record.
binder: NPDALPETLV [ARHGAP6, O43182]
measuredResult: 4.44
//
binder: KQVVPFSSSV [GDA, Q9Y2T3]
measuredResult: 4.24
//
binder: SHSSKGETAV [FZD7, O75084]
measuredResult: 4.84

Can you look up the measured pKd of QRPYRRESEI [KCNJ12, Q14500] for me? 4.65

Taken from paper PMC9482650.
